# Assay comment: Tanguay_ZF_120hpf_PE_legacy: (Legacy) Oregon State University Tanguay Lab 120 Hour Post-fertilization zebrafish Assay for Pericardial Edema (AID 2283640);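 as to AC50: potency for increased incidence of pericardial edema versus DMSO baseline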
# Experimental: Tanguay_ZF_120hpf_legacy is a whole embryo, multiplexed endpoint assay using zebrafish larvae exposed for 120 hours post fertilization on a 96-well plate.Tanguay_ZF_120hpf_PE_legacy is one of one assay component(s) measured or calculated from the Tanguay_ZF_120hpf_legacy assay. […] This assay endpoint, Tanguay_ZF_120hpf_PE_legacy, was analyzed in the positive analysis fitting direction relative to DMSO as the negative control and baseline of activity. […]
Inconclusive results are not listed. Calls of active or inactive are those of the source. The calls were made as follows: active = hit-call score of the fitted dose curve at least 0.9, where 1 is the maximum; inconclusive = response in the unintended direction; inactive = score below 0.9.
Quantity measured: AC50

Previously resolved entries follow.
INSERT INTO assay_data (compound, result) VALUES
  ('O=S1OCC2C(CO1)C1(Cl)C(Cl)=C(Cl)C2(Cl)C1(Cl)Cl (stereo unspecified)', 'inactive'),
  ('CCC(C)Nc1c([N+](=O)[O-])cc(C(C)(C)C)cc1[N+](=O)[O-] (stereo unspecified)', 'inactive'),
  ('CNC(=O)Oc1cccc(N=CN(C)C)c1', 'inactive'),
  ('O=C(O)CCCOc1ccc(Cl)cc1Cl', '24.2 µM (active)'),
  ('CCC(C)(C)C(=O)OC1=C(c2ccc(Cl)cc2Cl)C(=O)OC12CCCCC2', 'inactive');

# ---- query compound ----
Entry Oc1cc(Cl)ccc1Oc1ccc(Cl)cc1Cl : reported AC50 = ?
inactive

---

# Assay comment: ATG_M_32_TRANS: Attagene TRANS-FACTORIAL HepG2 Assay for M32 Transcription Factor (Internal Marker) (AID 2282984);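 also: transcript level of a background control reporter unit measured by RT-PCR and capillary electrophoresis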
# Particulars: HepG2 Attagene TRANS M32 internal marker reporter
Records with an inconclusive call do not appear. Calls of active or inactive are those of the source. The calls were made as follows: active = hit-call score of the fitted dose curve at least 0.9, where 1 is the maximum; inconclusive = response in the unintended direction; inactive = score below 0.9.
Quantity measured: outcome

INSERT INTO measurements (compound, result) VALUES
  ('[2H]C1([2H])[n+]2ccccc2-c2cccc[n+]2C1([2H])[2H]', 'inactive'),
  ('CCCN(CCC)c1c([N+](=O)[O-])cc(C(F)(F)F)cc1[N+](=O)[O-]', 'inactive'),
  ('O=[N+]([O-])c1c(Cl)c(Cl)c(Cl)c(Cl)c1Cl', 'inactive'),
  ('COP(=O)(OC)OC=C(Cl)Cl', 'inactive'),
  ('CC1(c2ccc(Oc3ccccc3)cc2)OC(=O)N(Nc2ccccc2)C1=O (stereo unspecified)', 'inactive');

Note: attention shifts to another entry.
For the compound shown here, Oc1cc(Cl)ccc1Oc1ccc(Cl)cc1Cl , give the reported outcome.
inactive

---

# Assay comment: CEETOX_H295R_CORTIC: CeeTox H295R High-throughput Steroidogenesis Assay for Corticosterone (CORTIC) (AID 2283437);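 also: corticosterone secreted into medium quantified by mass spectrometry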;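 as to AC50: human H295R adrenal cells prestimulated with forskolin before chemical exposure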
# Particulars: actives raise or lower the signal
Active and inactive are the calls of the source. The calls were made as follows: active = hit-call score of the fitted dose curve at least 0.9, where 1 is the maximum; inactive = score below 0.9.
Quantity measured: AC50

INSERT INTO results (structure_notation, quantity_measured, result) VALUES
  ('CNC(=O)Oc1ccccc1OC(C)C', 'AC50', 'inactive'),
  ('CNC(=O)/C=C(\C)OP(=O)(OC)OC', 'AC50', 'inactive'),
  ('C[C@H]1[C@H](c2ccc(Cl)cc2)SC(=O)N1C(=O)NC1CCCCC1', 'AC50', 'inactive'),
  ('CCc1ccc(C(=O)NN(C(=O)c2cc(C)cc(C)c2)C(C)(C)C)cc1', 'AC50', 'inactive'),
  ('CCCN(CCOc1c(Cl)cc(Cl)cc1Cl)C(=O)n1ccnc1', 'AC50', '12.2 nM (active)');

Next up:
# lookup: AC50 of C#CCN1C(=O)COc2cc(F)c(N3C(=O)C4=C(CCCC4)C3=O)cc21
inactive
